Attribution: patent US20250034170A1

Molecular target: GCase (Homo sapiens, UniProt P04062)
Construct: endogenous in cells; host or cells: HeLa cells
Test: activation of GCase in a live cell PFB assay in HELA cells
Assay type: cell-based
Conditions: activation of GCase, EC50 ranges
Protocol: Exemplary compounds were evaluated for activation of GCase in a live cell PFB assay in HELA cells (essentially as described in Ysselstein et al., “LRRK2 kinase activity regulates lysosomal glucocerebrosidase in neurons derived from Parkinson's disease patients” Nature Communications (2019) 10:5570). […] EC50 ranges: A: <10 μM; B: >10-50 μM; C: >50-100 μM; D: >100 μM.
pEC50: −log10 of the molar value.
PARAMETER: pEC50

Answered examples (5):
Cc1cc(N2CC3(CCN(c4ncc5cnn(CC(F)F)c5n4)C3)C2)nc(C)n1 [Cmpd 642]: 4.30 to 5.00
CC1CC2(CCN(c3cc(C(F)(F)F)ccn3)C2)CCN1c1cnc2cnn(CC(F)F)c2n1 (centres unmarked) [Cmpd 745]: > 5.00
Cc1cc(N2CCC3(CCN(c4nc5c(cnn5CC(F)F)c(=O)n4C)CC3)C2)nc(C(F)(F)F)n1 [Cmpd 1087]: > 5.00
C[C@H]1CN(c2cnc3cnn(CC(F)F)c3n2)CC[C@@]12CCN(c1cccc(C(F)(F)F)n1)C2=O (racemic) [Cmpd 669]: 4.30 to 5.00
COc1nn(C2COC2)c2nc(N3CCC4(CC3)CC(=O)N(c3ccc(C(F)(F)F)nc3)C4)ncc12 [Cmpd 952]: 4.30 to 5.00

Lookup: Data request, read-out pEC50, for O=C1CC2(CN1c1ccc(F)c(C(F)(F)F)c1)C1CC2CN(c2cnc3cnn(CC(F)F)c3n2)C1 (centres unmarked) [Cmpd 722]
Found: 4.30 to 5.00

Lookup: Check FC(F)Cn1ncc2ncc(N3CCC4(CCN(c5cncc(C(F)(F)F)n5)C4)CC3)nc21 [Cmpd 733] too.
Found: > 5.00

Lookup: Queued: Cc1nc(N2CCC3(C2)CN(c2ncc4cnn(CC(F)(F)F)c4n2)C3)cc(C(F)(F)F)n1 [Cmpd 554]
Found: 4.30 to 5.00

----------
Molecular target: GCase (Homo sapiens)
Construct: endogenous in cells; host or cells: HeLa cells
Experiment: activation of GCase in a live cell PFB assay in HELA cells
Assay type: cell-based
Details: activation of GCase, EC50 ranges
pEC50: −log10 of the molar value.
List of pEC50 values.

FC(F)Cn1ncc2ncc(N3CC4(CCCN(c5ccnc(C(F)(F)F)c5)C4)C3)nc21: > 5.00
CCOc1nn(CC(F)F)c2nc(N3CCC4(CN(c5cc(C(F)(F)F)nc(C)n5)C4)C3)cnc12: 4.00 to 4.30
FC(F)Cn1ncc2ncc(N3CCCC4(C3)CN(c3ncccc3C(F)(F)F)C4)nc21: 4.30 to 5.00
FC(F)(F)c1ncc(N2CC3(CCN(c4cnc5cnn([C@@H]6CCOC6)c5n4)C3)C2)cn1: 4.30 to 5.00

Lookup: Param item = Cc1cc(N2CC3(CCN(c4cnc5cnn(C6COC6)c5n4)C3)C2)nc(C(F)(F)F)n1 ; retrieve measured pEC50.
Found: 4.30 to 5.00

Lookup: Proceed to FC(F)Cn1ncc2ncc(N3CCC4(CC3)CCN(c3ncccc3C(F)(F)F)C4)nc21
Found: 4.30 to 5.00

Lookup: Next record, please: Cc1nn(C2COC2)c2nc(N3CCC4(CN(c5ccnc(C(F)(F)F)c5)C4)C3)ncc12
Found: 4.30 to 5.00

Lookup: Try this compound next: FC(F)Cn1ncc2ncc(N3CCC4(C3)CN(c3nnc(C(F)(F)F)s3)C4)nc21
Found: 4.30 to 5.00

----------
Target: GCase (Homo sapiens, UniProt P04062)
Construct: endogenous in cells; host or cells: HeLa cells
Sequence (P04062 40-536): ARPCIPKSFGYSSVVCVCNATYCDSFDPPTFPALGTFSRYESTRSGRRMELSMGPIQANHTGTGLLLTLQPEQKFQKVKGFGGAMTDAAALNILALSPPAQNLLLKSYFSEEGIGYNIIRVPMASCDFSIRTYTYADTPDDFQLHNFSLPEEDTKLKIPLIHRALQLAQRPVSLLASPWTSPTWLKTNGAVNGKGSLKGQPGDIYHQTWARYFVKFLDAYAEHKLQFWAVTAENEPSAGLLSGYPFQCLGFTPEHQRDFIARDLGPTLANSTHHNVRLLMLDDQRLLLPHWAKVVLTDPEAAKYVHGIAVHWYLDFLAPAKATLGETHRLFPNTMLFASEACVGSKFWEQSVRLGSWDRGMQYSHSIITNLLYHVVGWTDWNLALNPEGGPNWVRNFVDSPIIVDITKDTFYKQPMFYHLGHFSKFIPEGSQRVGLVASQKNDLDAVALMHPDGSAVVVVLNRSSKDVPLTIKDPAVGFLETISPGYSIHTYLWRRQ
Test: activation of GCase in a live cell PFB assay in HELA cells
Type: cell-based
Settings: EC50 given as range classes
PARAMETER: EC50

Examples with answers:
FC(F)(F)CCn1ncc2ncc(N3CCC4(CN(c5ccnc(C(F)(F)F)c5)C4)C3)nc21: < 10 µM
Cc1nn(CC(F)F)c2nc(N3CC4(CC3=O)CN(c3ccnc(C(F)(F)F)c3)C4)ncc12: 10 to 50 µM
FC(F)Cn1ncc2cnc(N3CCC4(CCN(c5ccc(C(F)(F)F)nc5)C4)CC3)nc21: 10 to 50 µM

Lookup: Requested field: EC50. Item: Cc1ccc(N2CC3(CCN(c4cnc5cnn(CC(F)F)c5n4)CC3)CC2=O)c(OC(F)F)n1
Found: < 10 µM

Lookup: Entry to check: Cc1csc(CN2CC3(CCN(c4cnc5cnn(CC(F)F)c5n4)CC3)CC2=O)n1
Found: 10 to 50 µM

----------
Each record here notes measured pEC50.
Molecular target: GCase (Homo sapiens)
Construct: endogenous in cells; host or cells: HeLa cells
Sequence (P04062 40-536): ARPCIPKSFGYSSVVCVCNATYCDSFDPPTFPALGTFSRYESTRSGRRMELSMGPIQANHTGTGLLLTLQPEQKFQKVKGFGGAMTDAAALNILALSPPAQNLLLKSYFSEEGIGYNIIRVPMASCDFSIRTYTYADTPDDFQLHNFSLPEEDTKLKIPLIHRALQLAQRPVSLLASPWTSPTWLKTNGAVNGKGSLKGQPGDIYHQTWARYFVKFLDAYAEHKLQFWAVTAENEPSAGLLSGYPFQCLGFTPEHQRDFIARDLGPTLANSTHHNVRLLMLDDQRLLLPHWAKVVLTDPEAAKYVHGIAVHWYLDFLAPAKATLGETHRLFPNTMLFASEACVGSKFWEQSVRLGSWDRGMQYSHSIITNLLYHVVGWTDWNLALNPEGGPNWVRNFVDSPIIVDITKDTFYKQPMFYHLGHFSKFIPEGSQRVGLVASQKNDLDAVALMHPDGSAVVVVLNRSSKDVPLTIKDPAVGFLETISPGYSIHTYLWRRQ
Assay: activation of GCase in a live cell PFB assay in HELA cells
Format: cell-based
Settings: activation of GCase, EC50 ranges
pEC50: −log10 of the molar value.

Cc1nn(C2COC2)c2nc(N3CCC4(CCN(c5ccnc(C(F)(F)F)c5)C4)C3)cnc12 (centres unmarked): 4.00 to 4.30

Lookup: // lookup pEC50 | system=GCase (Homo sapiens) | key= O=S(=O)(c1ccc(C(F)(F)F)cc1)N1CC2(CCN(c3cnc4cnn(CC(F)F)c4n3)C2)C1
Found: 4.30 to 5.00

Lookup: Let us now turn to FC(F)Cn1ncc2ncc(N3CCC4(CCN(c5cc(C(F)F)ccn5)CC4)C3)nc21
Found: 4.30 to 5.00

Lookup: How about Cc1nc(N2CCC3(CCN(c4cnc5cnn(CC(F)F)c5n4)C3)C2=O)cc(C(F)(F)F)n1 (centres unmarked) ?
Found: > 5.00

----------
Molecular target: GCase (Homo sapiens, UniProt P04062)
Construct: endogenous in cells; host or cells: HeLa cells
Sequence (P04062 40-536): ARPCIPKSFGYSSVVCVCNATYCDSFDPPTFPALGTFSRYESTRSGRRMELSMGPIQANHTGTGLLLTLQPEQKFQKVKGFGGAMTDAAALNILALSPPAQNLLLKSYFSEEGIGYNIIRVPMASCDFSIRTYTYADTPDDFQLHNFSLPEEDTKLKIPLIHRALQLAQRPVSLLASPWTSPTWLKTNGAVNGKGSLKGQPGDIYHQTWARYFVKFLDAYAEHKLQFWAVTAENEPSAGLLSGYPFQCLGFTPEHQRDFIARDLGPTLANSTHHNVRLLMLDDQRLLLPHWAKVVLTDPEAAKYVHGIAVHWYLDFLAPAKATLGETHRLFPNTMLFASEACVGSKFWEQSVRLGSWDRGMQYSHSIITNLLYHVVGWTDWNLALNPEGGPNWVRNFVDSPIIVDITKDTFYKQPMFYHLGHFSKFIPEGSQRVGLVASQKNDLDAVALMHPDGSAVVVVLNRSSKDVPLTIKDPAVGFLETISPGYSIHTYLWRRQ
Test: activation of GCase in a live cell PFB assay in HELA cells
Assay type: cell-based
Conditions: activation of GCase, EC50 ranges
Method: Exemplary compounds were evaluated for activation of GCase in a live cell PFB assay in HELA cells (essentially as described in Ysselstein et al., “LRRK2 kinase activity regulates lysosomal glucocerebrosidase in neurons derived from Parkinson's disease patients” Nature Communications (2019) 10:5570). […] EC50 ranges: A: <10 μM; B: >10-50 μM; C: >50-100 μM; D: >100 μM.
PARAMETER: EC50

Some molecules with known EC50 results, for comparison:
CC1CC2(CCN(c3cnc4cnn(CC(F)F)c4n3)CC2)CN1c1ccc(C(F)(F)F)nc1 (stereo not shown): 10 to 50 µM
O=C(c1ccc2cc[nH]c2c1)N1CCCC2(CC(Oc3cnccc3C(F)(F)F)C2)C1 (stereo not shown): 50 to 100 µM
O=C1CC2(CCN(c3ncc4cnn(CC(F)F)c4n3)CC2)CN1c1cc(C(F)(F)F)ccn1: < 10 µM

Note: attention shifts to another entry.
Lookup: Which EC50 is listed for FC(F)Cn1ncc2ncc(N3CC4(CCCN(c5cccc(C(F)(F)F)n5)C4)C3)nc21 ?
Found: 10 to 50 µM
